Just for reference, the supplement of paper PMC6555819 is where these values come from.

tested on: RARg homodimer (NR concentration 270 nM); test: PBM binding z-score (relative to random genomic background probes); higher = stronger binding; sequences stand for … in GC…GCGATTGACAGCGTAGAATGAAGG
Listed sequences paired with reported PBM binding z-score
Respond with the number and no other words.

Worked set:
>>> print(df.to_string())
                       sequence_entry              measure  quantitative_readout
0  CCAGACAGGTGAAAGGTAACTCAGTCTGGTACGC  PBM binding z-score                 0.817
1  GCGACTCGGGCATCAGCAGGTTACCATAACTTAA  PBM binding z-score                0.0755

Input: Lab note: need PBM binding z-score with RARg homodimer (NR concentration 270 nM) for entry AATACAGGGTCATCGTAGGCCCGAGTACGCACAG , please look it up.
Output: 5.24

Input: Find PBM binding z-score (RARg homodimer (NR concentration 270 nM)) for the entry AGACCAAGGTGATCGTGAGGTCGTTGATACTAAC
Output: 0.635

Input: Return PBM binding z-score measured with RARg homodimer (NR concentration 270 nM) given this sequence: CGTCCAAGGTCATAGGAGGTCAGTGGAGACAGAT
Output: 6.98

Input: Item: ATCTCTAGGTACGACTCAGTTCAGTGAAGAACGC Test system: RARg homodimer (NR concentration 270 nM) Read-out: PBM binding z-score Value: ?
Output: 0.331

###

A collection of sequences and their measured PBM binding z-score
system: VDR:RXRa (NR concentration 270 nM, RXRa partner concentration 90 nM); assay: PBM binding z-score (relative to random genomic background probes); higher = stronger binding; sequences stand for … in GC…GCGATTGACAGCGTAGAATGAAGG
Answer using only a numeral; do not append any unit.

>>> print(df.to_string())
                       sequence_entry  quantitative_readout
0  CCTACTGAGCCAAAGGTCATTGATTCCAATGCTC                  4.81
1  AGAATGAGGTTACCAAAGATAAGGGAAACGCTTG                  1.07
2  AGTCAAAGTTTACTAGGTAACGTAAGATTCAGCT                 0.363
3  CCTCGGAGGACAGAAGGTTAGAGCTGTCCGCTTT                -0.275
4  TCTTGTAGATCAACAGGTTAAGAAAGCTGGCCAA                 0.855

Turning now to a further sequence:
Input: // lookup PBM binding z-score for TCTAGTTGTTCAAAGGTCACACACTCGAAATGCG
Output: 4.95

###

tested on: THRa homodimer (NR concentration 90 nM); experiment: PBM binding z-score (relative to random genomic background probes); higher = stronger binding; sequences stand for … in GC…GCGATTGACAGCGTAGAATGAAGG
Short version: PBM binding z-score at least 0.5 is label 1, less is label 0.

Example results:
>>> df
                       sequence_entry  class_label
0  CCTAATTGGTCAAGGTCACACACGCTATAGGTAC      label 1
1  AGAATGAGGCTATACGTAGATCAGGGAAGAAAGT      label 0
2  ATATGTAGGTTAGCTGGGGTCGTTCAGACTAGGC      label 1
3  CGAACTAGATCATCCAGGACAGTGAATACATTGA      label 1

Input: Quick check, PBM binding z-score >= 0.5? CGTCCAGGGTCATAGGAGGTCAGTGAAGACAGAT
Output: label 1

###

# key: entry, value: PBM binding z-score
test system: RARa homodimer (NR concentration 270 nM); assay: PBM binding z-score (relative to random genomic background probes); higher = stronger binding; sequences stand for … in GC…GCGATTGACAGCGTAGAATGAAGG

Input: Data request, read-out PBM binding z-score, for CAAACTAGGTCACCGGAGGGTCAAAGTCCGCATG
Output: 1.73

Input: I am curious: what PBM binding z-score value has been reported for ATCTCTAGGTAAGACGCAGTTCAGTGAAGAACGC ?
Output: 0.278

Input: Could you tell me which PBM binding z-score is on file for CCTATTAGTTGACCATAAGGGCGACCGAAGCTCG ?
Output: 1.68

Input: Fill in: PBM binding z-score of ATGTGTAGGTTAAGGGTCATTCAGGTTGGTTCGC is ___
Output: 3.77

Input: # lookup: PBM binding z-score of ATATGTAGGTTCAGGGTCATTCAGGTTGGTTCGC
Output: 2.39

Input: So what does the record say about PBM binding z-score for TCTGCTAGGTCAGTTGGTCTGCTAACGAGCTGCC ?
Output: -1.16

Input: Looking for the measured PBM binding z-score of TCATATAGGTAAATGCTAGGTGAAAGTACGATCT , can you help?
Output: 1.13

Input: What does the record list as PBM binding z-score for ATCGCTAGGTAAAGTTCAGTGAAAGATCGATAGA ?
Output: -0.216

Input: Return reported PBM binding z-score; argument: ATCCCTAGGTAAGACTCAGTTCAGTGAAGAACGC
Output: 0.532

Input: Look up PBM binding z-score: GCAGACAGGTGGAACGCAGGTAACTCAGGGTGGC
Output: -1.35

Input: Entry CCTAGCAGGCCAATCTTGGTCACTCAAGGCTTGA : reported PBM binding z-score = ?
Output: -1.07

Input: Give its PBM binding z-score value. Item: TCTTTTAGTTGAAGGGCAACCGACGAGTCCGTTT
Output: 0.199

Input: Record request: PBM binding z-score value, item TGAATGAGGTTATAAGACCAGGGAACGTTGCAAA
Output: 0.0796

Input: Sample CTAACTAGGTCATCCAGGACAGTGAATACATTGA — what was its PBM binding z-score?
Output: 0.768

###

Listed sequences paired with reported PBM binding z-score
system: PXR homodimer (NR concentration 270 nM); assay: PBM binding z-score (relative to random genomic background probes); higher = stronger binding; sequences stand for … in GC…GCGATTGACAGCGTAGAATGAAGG

Input: Item: AGTCAAAGTTCAGTACGAGGTAACGTAAAGCACG Test system: PXR homodimer (NR concentration 270 nM) Read-out: PBM binding z-score Value: ?
Output: 1.72

Input: Find the measured PBM binding z-score: item GCATATAGGTAATACAAGGTGAAAGACCGATTGT , target or system PXR homodimer (NR concentration 270 nM).
Output: -0.102

Input: Provide value of PBM binding z-score for this record tested with PXR homodimer (NR concentration 270 nM): ATCGAAAGGTCGAGGTGACTATAGAGAAAGGGAA
Output: 0.185

Input: Reported PBM binding z-score for PXR homodimer (NR concentration 270 nM), given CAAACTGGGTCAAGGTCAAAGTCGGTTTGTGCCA ?
Output: 2.48

Input: Query for PXR homodimer (NR concentration 270 nM): what PBM binding z-score does the record show for TCTATTAGTTGTTTAGGGCAACCGAAACAGCGGA ?
Output: 0.33

Input: Tell me reported PBM binding z-score for GGAACGAGGGCATTCGAGTTGATATCATGGCGAT , tested with PXR homodimer (NR concentration 270 nM).
Output: 1.54

Input: Request - read-out PBM binding z-score | tested on PXR homodimer (NR concentration 270 nM) | sequence GCGACTGGGGCATAGCAGGTTACCATAAGGTTGG
Output: -0.519

Input: # returns recorded PBM binding z-score (system: PXR homodimer (NR concentration 270 nM)) for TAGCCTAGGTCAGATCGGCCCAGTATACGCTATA
Output: -0.754

Input: Give PXR homodimer (NR concentration 270 nM) PBM binding z-score for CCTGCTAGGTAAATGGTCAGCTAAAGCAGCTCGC
Output: -0.537

Input: Report PBM binding z-score for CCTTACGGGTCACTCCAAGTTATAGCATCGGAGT tested on PXR homodimer (NR concentration 270 nM).
Output: 0.296

Input: Form field - read-out: PBM binding z-score; system: PXR homodimer (NR concentration 270 nM); submitted item: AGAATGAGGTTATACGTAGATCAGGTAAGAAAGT
Output: 0.571

Input: Lab request: please report PBM binding z-score under test system PXR homodimer (NR concentration 270 nM) for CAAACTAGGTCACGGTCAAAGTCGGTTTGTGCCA
Output: -0.218

###

test system: PPARg:RXRa IVT, anti-PPARg (NR concentration 270 nM, RXRa partner concentration 90 nM); assay: PBM binding z-score (relative to random genomic background probes); higher = stronger binding; sequences stand for … in GC…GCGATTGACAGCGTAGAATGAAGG
# reported PBM binding z-score; entries follow
Please respond with just the number, no unit label.

In [3]: df
Out[3]:
                       sequence_entry              measure  quantitative_readout
0  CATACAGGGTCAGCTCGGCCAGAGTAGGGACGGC  PBM binding z-score                  2.11
1  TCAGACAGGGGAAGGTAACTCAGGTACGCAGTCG  PBM binding z-score                 0.171
2  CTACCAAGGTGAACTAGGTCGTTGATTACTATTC  PBM binding z-score                   3.8

Input: Look up PBM binding z-score for this sequence: TCAGACGGGTGAAGGTAACTCAGGTACGCAGTCG
Output: 0.818

Input: # get_value(readout='PBM binding z-score', item= CGAACTAGGTCATTGACATGACAGTGAATAGTAA )
Output: 8.44
